- Tested on: Mus musculus
- assay_method_text: Toxicity in PS mouse allografted with mouse P388 cells assessed as change in body weight at 1.8 ug/kg relative to control
- Format: organism-based
- condition_context: in vivo, 0.0018 mg/kg
measurement_label: Activity (g)
Just the number in g, nothing appended.

Exercise: State its Activity: COc1cc2cc(c1Cl)N(C)C(=O)C[C@H](OC(=O)CBr)[C@]1(C)O[C@H]1[C@H](C)[C@@H]1C[C@@](O)(NC(=O)O1)[C@H](OC)/C=C/C=C(\C)C2
Solution: -0.6

----------
- Tested on: Mus musculus
- assay_method_text: Toxicity in PS mouse allografted with mouse P388 cells assessed as survival at 1.6 ug/kg after 4 days
- Type: organism-based
- condition_context: in vivo, 0.0016 mg/kg, 96 h
measurement_label: Activity

>  <given_smiles>
COc1cc2cc(c1Cl)N(C)C(=O)C[C@H](OC(=O)[C@H](C)N(C)C(=O)C(C)C)[C@]1(C)O[C@H]1[C@H](C)[C@@H]1C[C@@](OC)(NC(=O)O1)[C@H](OC)/C=C/C=C(\C)C2

>  <value_observed>
Non-toxic

$$$$
>  <given_smiles>
COc1cc2cc(c1Cl)N(C)C(=O)C[C@H](OC(=O)[C@H](C)N(C)C(=O)C(C)C)[C@]1(C)O[C@H]1[C@H](C)[C@@H]1C[C@@](O)(NC(=O)O1)[C@H](OC)/C=C/C=C(\C)C2

>  <value_observed>
Non-toxic

$$$$
>  <given_smiles>
COc1cc2cc(c1Cl)N(C)C(=O)C[C@H](OC(C)=O)[C@]1(C)O[C@H]1[C@H](C)[C@@H]1C[C@@](O)(NC(=O)O1)[C@H](OC)/C=C/C=C(\C)C2

>  <value_observed>
Non-toxic

$$$$

----------
- Test system: Mus musculus
- assay_method_text: Toxicity in PS mouse allografted with mouse P388 cells assessed as change in body weight at 1.6 ug/kg relative to control
- Assay type: organism-based
- condition_context: in vivo, 0.0016 mg/kg
measurement_label: Activity (g)
Enter your answer as a number in g; do not include the unit.

Below: 2 compounds and their reported Activity.
>  <compound>
CCC(=O)N(C)[C@@H](C)C(=O)O[C@H]1CC(=O)N(C)c2cc(cc(OC)c2Cl)C/C(C)=C/C=C/[C@@H](OC)[C@@]2(O)C[C@H](OC(=O)N2)[C@@H](C)[C@@H]2O[C@@]12C

>  <Activity / g>
-1.2

$$$$
>  <compound>
COc1cc2cc(c1Cl)N(C)C(=O)C[C@H](OC(=O)[C@H](C)N(C)C(=O)C(C)C)[C@]1(C)O[C@H]1[C@H](C)[C@@H]1C[C@@](O)(NC(=O)O1)[C@H](OC)/C=C/C=C(\C)C2

>  <Activity / g>
0

$$$$

Next compound, Activity to be filled in.
Exercise: Recall and state the measured Activity for COc1cc2cc(c1Cl)N(C)C(=O)C[C@H](OC(=O)C(C)C)[C@]1(C)O[C@H]1[C@H](C)[C@@H]1C[C@@](O)(NC(=O)O1)[C@H](OC)/C=C/C=C(\C)C2OC(C)=O (stereo partly drawn) .
Solution: -0.7

----------
- System: P388
- assay_method_text: Antitumor activity against mouse P388 cells allografted in PS mouse assessed as median survival time at 0.4 ug/kg relative to control
- Format: functional
T/C for assorted compounds
Numeric answer only, unit % assumed.

Here's what some known entries look like.
>  <given_smiles>
COc1cc2cc(c1Cl)N(C)C(=O)/C=C/[C@]1(C)O[C@H]1[C@H](C)[C@@H]1C[C@@](O)(NC(=O)O1)[C@H](OC)/C=C/C=C(\C)C2

>  <test_system>
P388

>  <T/C [%]>
90

$$$$
>  <given_smiles>
COc1cc2cc(c1Cl)N(C)C(=O)C[C@H](OC(=O)[C@H](C)N(C)C(=O)CC(C)C)[C@]1(C)O[C@H]1[C@H](C)[C@@H]1C[C@@](O)(NC(=O)O1)[C@H](OC)/C=C/C=C(\C)C2

>  <test_system>
P388

>  <T/C [%]>
125

$$$$

Now for the compound whose T/C we want.
Exercise: Item COc1cc2cc(c1Cl)N(C)C(=O)C[C@H](OC(=O)[C@H](C)N(C)C(=O)C(C)C)[C@]1(C)O[C@H]1[C@H](C)[C@@H]1C[C@@](O)(NC(=O)O1)[C@H](OC)/C=C/C=C(\C)C2 : provide T/C
Solution: 155
